# System tested: Cytochrome P450 3A4 (Homo sapiens)
# Sequence (P08684 whole entry): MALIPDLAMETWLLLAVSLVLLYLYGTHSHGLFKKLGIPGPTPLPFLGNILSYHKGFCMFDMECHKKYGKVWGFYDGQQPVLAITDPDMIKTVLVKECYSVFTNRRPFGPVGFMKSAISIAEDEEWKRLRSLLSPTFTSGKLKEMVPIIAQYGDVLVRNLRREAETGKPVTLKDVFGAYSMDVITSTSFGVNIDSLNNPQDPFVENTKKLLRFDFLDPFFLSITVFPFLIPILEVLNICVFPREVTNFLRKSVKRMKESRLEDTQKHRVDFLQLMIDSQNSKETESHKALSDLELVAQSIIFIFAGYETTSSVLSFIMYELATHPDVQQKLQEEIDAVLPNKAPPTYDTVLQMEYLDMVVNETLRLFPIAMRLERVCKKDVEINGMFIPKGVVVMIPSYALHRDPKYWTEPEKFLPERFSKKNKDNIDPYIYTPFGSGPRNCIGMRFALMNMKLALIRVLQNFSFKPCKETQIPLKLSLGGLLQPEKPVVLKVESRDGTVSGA
# Assay notes: Inhibition of CYP3A4 in human liver microsomes using testosterone as substrate incubated for 10 mins in presence of NADPH by LC/MS/MS analysis
# Assay type: ADME
Metric name: IC50

Entry COc1cc(-c2cncc(-c3ccc(N4CCNCC4)cc3)c2C)cc(OC)c1OC , system Cytochrome P450 3A4 (Homo sapiens): what IC50 was measured? > 9 µM

###

# Assay notes: Drug concentration in CB17 SCID mouse brain at 100 mg/kg after 0.25 to 24 hrs
# Type: ADME, organism-based
# Condition: in vivo, read-out: Drug uptake
Metric name: concentration (µM)
Output spec: scalar in µM, unitless text.

# concentration lookup, item COc1cc(-c2cncc(-c3ccc(C4CCN(C)CC4)cc3)c2C)cc(OC)c1OC 39

###

pIC50: −log10 of the molar value.
Metric name: pIC50

Look up pIC50 with Serine/threonine-protein kinase NLK (Homo sapiens, UniProt Q9UBE8) for this molecule: COc1cc(-c2cncc(-c3ccc(N4CCNCC4)cc3)c2C)cc(OC)c1OC 6.03 to 6.47

###

# Assay notes: Ratio of drug level in brain to plasma in CB17 SCID mouse at 50 mg/kg, po measured at 4 h
# Type: ADME, organism-based
# Condition: read-out: BPR
Metric name: Kp at 4 h
The response must contain the number and no unit.

Which Kp at 4 h reading was recorded for the molecule COc1cc(-c2cncc(-c3ccc(N4CCNCC4)cc3)c2C)cc(OC)c1OC ? 1.8

###

# System tested: Cytochrome P450 2C9 (Homo sapiens, UniProt P11712)
# Sequence (P11712 whole entry): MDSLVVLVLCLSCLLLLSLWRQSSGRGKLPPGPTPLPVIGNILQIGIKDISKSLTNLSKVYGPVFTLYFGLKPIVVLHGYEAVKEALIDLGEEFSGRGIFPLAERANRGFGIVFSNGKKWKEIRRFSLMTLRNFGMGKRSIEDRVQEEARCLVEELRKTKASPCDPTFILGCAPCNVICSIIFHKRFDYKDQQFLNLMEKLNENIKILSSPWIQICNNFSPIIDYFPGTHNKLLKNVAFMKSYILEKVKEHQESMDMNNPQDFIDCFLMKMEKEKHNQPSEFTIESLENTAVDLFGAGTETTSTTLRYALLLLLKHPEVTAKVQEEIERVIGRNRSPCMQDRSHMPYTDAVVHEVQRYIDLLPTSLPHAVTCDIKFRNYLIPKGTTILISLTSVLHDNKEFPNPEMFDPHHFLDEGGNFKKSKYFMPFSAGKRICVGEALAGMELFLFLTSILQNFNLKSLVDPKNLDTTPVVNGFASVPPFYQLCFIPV
Metric name: IC50

API: value(readout=IC50, system=Cytochrome P450 2C9 (Homo sapiens, UniProt P11712)) for record COc1cc(-c2cncc(-c3ccc(N4CCNCC4)cc3)c2C)cc(OC)c1OC > 30 µM

###

# System tested: Voltage-gated inwardly rectifying potassium channel KCNH2 (Homo sapiens)
# Assay notes: Inhibition of human ERG expressed in HEK293 cells after 5 mins by IonWorks barracuda patch clamp method
Record form. Attribute: IC50. Fill in for each entry.
Numeric only. Scale: µM

Requested field: IC50. Item: COc1cc(-c2cncc(-c3ccc(N4CCNCC4)cc3)c2Cl)cc(OC)c1OC 2.7

Look at this compound and give its reported IC50. COc1cc(-c2cncc(-c3ccc(C4=CCNCC4)cc3)c2C)cc(OC)c1OC 3.4

###

Metric name: IC50

Lookup: IC50 / Cytochrome P450 2C19 (Homo sapiens, UniProt P33261) / COc1cc(-c2cncc(-c3ccc(N4CCNCC4)cc3)c2C)cc(OC)c1OC > 30 µM

###

Please respond with reported pIC50 for every item in the list.
# System tested: TGF-beta receptor type-1 (Homo sapiens)
# Sequence (P36897 whole entry): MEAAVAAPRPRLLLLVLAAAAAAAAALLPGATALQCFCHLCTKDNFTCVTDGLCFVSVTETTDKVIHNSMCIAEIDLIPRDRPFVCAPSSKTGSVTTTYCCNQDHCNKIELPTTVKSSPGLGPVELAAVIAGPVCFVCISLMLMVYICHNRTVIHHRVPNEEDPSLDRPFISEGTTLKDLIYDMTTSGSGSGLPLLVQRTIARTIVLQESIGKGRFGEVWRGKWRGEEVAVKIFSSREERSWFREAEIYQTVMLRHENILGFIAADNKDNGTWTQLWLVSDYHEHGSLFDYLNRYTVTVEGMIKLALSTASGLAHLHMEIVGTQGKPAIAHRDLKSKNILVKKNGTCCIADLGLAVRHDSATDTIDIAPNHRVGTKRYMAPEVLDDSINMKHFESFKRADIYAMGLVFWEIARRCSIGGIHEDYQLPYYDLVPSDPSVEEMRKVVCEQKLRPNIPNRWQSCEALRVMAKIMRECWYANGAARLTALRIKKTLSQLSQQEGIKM
# Assay notes: Inhibition of human ALK5 using casein as substrate in presence of [gamma-33P]-ATP by radiometric hotspot assay
# Format: ADME
pIC50 (log units): -log10 of the concentration in mol/L.

Consider the compound shown here: COc1cc(-c2cncc(-c3ccc(N4CCNCC4)cc3)c2C2CC2)cc(OC)c1OC What is its recorded pIC50? 5.33

Name the recorded pIC50 for COc1cc(-c2cncc(-c3ccc(N4CCNCC4)cc3)c2Cl)cc(OC)c1OC . 5.88

Item under review: COc1cc(-c2cncc(-c3ccc(N4CCN(C(C)=O)CC4)cc3)c2C)cc(OC)c1OC . Reported pIC50? 5.60

What pIC50 value was documented for this compound, COc1cc(-c2cncc(-c3ccc(N4CCS(=O)(=O)CC4)cc3)c2C)cc(OC)c1OC ? 5.91

Which pIC50 value is on record for COc1cc(-c2cncc(-c3ccc(CN4CCN(C)CC4)cc3)c2C)cc(OC)c1OC ? 5.58

What does the record list as pIC50 for COc1cc(-c2cncc(-c3ccc(C4CCNCC4)cc3)c2C)cc(OC)c1OC ? 5.76

###

# System tested: Cytochrome P450 2C8 (Homo sapiens)
# Sequence (P10632 whole entry): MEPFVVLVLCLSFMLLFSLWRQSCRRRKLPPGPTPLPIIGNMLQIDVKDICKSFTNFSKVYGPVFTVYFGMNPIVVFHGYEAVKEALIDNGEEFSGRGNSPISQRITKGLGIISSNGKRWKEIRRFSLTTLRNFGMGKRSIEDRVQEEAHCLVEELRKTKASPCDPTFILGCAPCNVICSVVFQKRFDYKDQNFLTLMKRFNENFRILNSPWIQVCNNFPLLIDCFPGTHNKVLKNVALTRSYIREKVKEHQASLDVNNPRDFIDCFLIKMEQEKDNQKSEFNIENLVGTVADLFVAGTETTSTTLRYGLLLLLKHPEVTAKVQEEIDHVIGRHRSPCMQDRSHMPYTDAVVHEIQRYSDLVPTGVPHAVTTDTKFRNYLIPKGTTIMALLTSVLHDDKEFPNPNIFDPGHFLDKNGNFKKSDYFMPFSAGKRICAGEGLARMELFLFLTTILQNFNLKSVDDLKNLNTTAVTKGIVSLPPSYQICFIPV
Metric name: IC50

Need IC50, item COc1cc(-c2cncc(-c3ccc(N4CCNCC4)cc3)c2C)cc(OC)c1OC > 30 µM

###

What Kp at 4 h was measured for each of the following?
# Assay notes: Ratio of drug level in brain to plasma in CB17 SCID mouse at 10 mg/kg, po measured at 4 h
# Assay type: ADME, organism-based
# Condition: brain and plasma, read-out: BPR
Give the figure by itself; no unit, no explanation.

Quick one: Kp at 4 h for COc1cc(-c2cncc(-c3ccc(C4=CCNCC4)cc3)c2C)cc(OC)c1OC ? 0.43

Fill blank: measured Kp at 4 h of the compound COc1cc(-c2cncc(-c3ccc(C4CCN(C)CC4)cc3)c2C)cc(OC)c1OC is ____. 0.82

###

Hi there, I'd appreciate the recorded pIC50 for every entry that follows.
# System tested: Voltage-gated inwardly rectifying potassium channel KCNH2 (Homo sapiens, UniProt Q12809)
# Sequence (Q12809 whole entry): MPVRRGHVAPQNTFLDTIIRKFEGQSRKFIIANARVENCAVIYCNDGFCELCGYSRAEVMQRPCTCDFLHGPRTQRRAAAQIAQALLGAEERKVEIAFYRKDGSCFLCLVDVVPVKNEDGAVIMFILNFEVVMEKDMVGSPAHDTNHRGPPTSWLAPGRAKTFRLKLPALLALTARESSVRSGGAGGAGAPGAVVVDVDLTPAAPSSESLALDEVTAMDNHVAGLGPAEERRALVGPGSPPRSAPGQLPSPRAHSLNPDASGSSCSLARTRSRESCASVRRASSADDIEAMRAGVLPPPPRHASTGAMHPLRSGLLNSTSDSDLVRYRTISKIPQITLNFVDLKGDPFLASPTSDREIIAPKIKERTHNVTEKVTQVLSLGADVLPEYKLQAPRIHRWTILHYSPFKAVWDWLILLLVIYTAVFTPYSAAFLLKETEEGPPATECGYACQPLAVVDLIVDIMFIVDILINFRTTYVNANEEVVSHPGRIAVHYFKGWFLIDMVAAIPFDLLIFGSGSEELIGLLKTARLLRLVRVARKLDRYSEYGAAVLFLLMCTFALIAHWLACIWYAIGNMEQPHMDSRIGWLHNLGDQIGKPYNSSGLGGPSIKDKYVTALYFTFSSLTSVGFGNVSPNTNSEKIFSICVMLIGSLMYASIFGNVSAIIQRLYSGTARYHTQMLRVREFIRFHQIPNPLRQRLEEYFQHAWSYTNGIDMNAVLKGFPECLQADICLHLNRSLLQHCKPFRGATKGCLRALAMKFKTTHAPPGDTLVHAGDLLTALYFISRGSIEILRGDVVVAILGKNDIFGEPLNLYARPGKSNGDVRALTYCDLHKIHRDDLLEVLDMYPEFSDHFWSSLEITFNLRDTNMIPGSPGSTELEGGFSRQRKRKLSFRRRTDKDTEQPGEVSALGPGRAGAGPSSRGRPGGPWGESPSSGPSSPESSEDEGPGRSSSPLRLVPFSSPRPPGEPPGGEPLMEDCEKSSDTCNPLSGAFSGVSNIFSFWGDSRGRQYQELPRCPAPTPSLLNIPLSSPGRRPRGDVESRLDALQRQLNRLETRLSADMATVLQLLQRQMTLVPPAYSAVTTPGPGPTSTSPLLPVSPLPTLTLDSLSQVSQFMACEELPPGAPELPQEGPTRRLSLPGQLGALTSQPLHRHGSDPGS
# Assay notes: Inhibition of human ERG expressed in HEK293 cells after 5 mins by IonWorks barracuda patch clamp method
pIC50 here is simply -log10 of the concentration when that concentration is written in mol/L.

Look up pIC50 with Voltage-gated inwardly rectifying potassium channel KCNH2 (Homo sapiens, UniProt Q12809) for this compound: COc1cc(-c2cncc(-c3ccc(N4CCNCC4)cc3)c2C#N)cc(OC)c1OC 5.22

Hello, I am looking for reported pIC50 with Voltage-gated inwardly rectifying potassium channel KCNH2 (Homo sapiens, UniProt Q12809) for COc1cc(-c2cncc(-c3ccc(OC4CCNCC4)cc3)c2C)cc(OC)c1OC . Could you help? 5.09

For Voltage-gated inwardly rectifying potassium channel KCNH2 (Homo sapiens, UniProt Q12809), provide pIC50 of COc1cc(-c2cncc(-c3ccc(C4CCN(C)CC4)cc3)c2C)cc(OC)c1OC please. 5.32

Entry COc1cc(-c2cncc(-c3ccc(N4C[C@@H](C)N[C@@H](C)C4)cc3)c2C)cc(OC)c1OC , system Voltage-gated inwardly rectifying potassium channel KCNH2 (Homo sapiens, UniProt Q12809): what pIC50 was measured? 5.23

# query: pIC50 | item COc1cc(-c2cncc(-c3ccc(N4CCN(C(C)C)CC4)cc3)c2C)cc(OC)c1OC | system: Voltage-gated inwardly rectifying potassium channel KCNH2 (Homo sapiens, UniProt Q12809) 5.51

###

# Assay notes: Half life in CB17 SCID mouse at 10 mg/kg, po after 0.25 to 24 hrs by LC/MS/MS method
# Format: ADME, organism-based
# Condition: in vivo
Metric name: half-life (h)
The response must be a number in h with no trailing unit.

Recorded half-life for COc1cc(-c2cncc(-c3ccc(C4=CCNCC4)cc3)c2C)cc(OC)c1OC , please? 6.02

// half-life lookup, key: COc1cc(-c2cncc(-c3ccc(N4CCNCC4)cc3)c2C)cc(OC)c1OC 3.11

Which half-life is reported for this molecule? COc1cc(-c2cncc(-c3ccc(OC4CCNCC4)cc3)c2C)cc(OC)c1OC 7.7

State the recorded half-life for this entry: COc1cc(-c2cncc(-c3ccc(C4CCN(C)CC4)cc3)c2C)cc(OC)c1OC 3.67

Reported half-life for COc1cc(-c2cncc(-c3ccc(N4CCN(S(C)(=O)=O)CC4)cc3)c2C)cc(OC)c1OC : what is it? 0.8

###

# Assay notes: Clearance in CB17 SCID mouse at 2 mg/kg, iv after 0.25 to 24 hrs by LC/MS/MS method
# Format: ADME, organism-based
# Condition: in vivo
Metric name: clearance (mL/min/kg)
The response must be a number in mL/min/kg with no trailing unit.

Give the measured clearance of COc1cc(-c2cncc(-c3ccc(N4CCNCC4)cc3)c2C)cc(OC)c1OC . 12.7

clearance lookup needed for COc1cc(-c2cncc(-c3ccc(C4CCN(C)CC4)cc3)c2C)cc(OC)c1OC , thanks. 8.9

Any idea what its clearance is? The compound is COc1cc(-c2cncc(-c3ccc(OC4CCNCC4)cc3)c2C)cc(OC)c1OC 6

For the compound shown here, COc1cc(-c2cncc(-c3ccc(N4CCN(S(C)(=O)=O)CC4)cc3)c2C)cc(OC)c1OC , give the reported clearance. 7.9

// clearance lookup, key: COc1cc(-c2cncc(-c3ccc(C4=CCNCC4)cc3)c2C)cc(OC)c1OC 3.84
